Assay: Toxicokinetic study, 14-day repeated intraperitoneal administration in Sprague-Dawley rats
Assay type: in vivo
Conditions: male, Sprague-Dawley, rat, in vivo, ip, 1.5 mg/kg/day, Cmax

COMPOUND_SMILES	UNIT_ABBREV	Cmax
CO[C@@H]1C[C@@H](C[C@H]2CC[C@H](C)[C@H]([C@@H](C)C(=O)O)O2)O[C@]2(O[C@](C)([C@H]3CC[C@@](C)([C@@H]4O[C@@H]([C@H]5O[C@@](O)(CO)[C@H](C)C[C@@H]5C)C[C@@H]4C)O3)C[C@H]2C)[C@@H]1C	ng/mL	830

====

Experiment: Toxicokinetic study, 14-day repeated intraperitoneal administration in Sprague-Dawley rats
Type: in vivo
Conditions: female, Sprague-Dawley, rat, in vivo, ip, 1.5 mg/kg/day, Cmax
Protocol: A 14-day repeat-intraperitoneal administration protocol was used for carrying out toxicokinetic studies with nigericin. Male and female animals were divided into three groups each based on the dose of nigericin administered (0.5, 1.5 and 5 mg/kg/day). […] The toxicokinetic parameters were quantified following the first (i.e., day-1) and last (i.e., day-14) administration of nigericin, and the findings are tabulated in Table-3. […]

COMPOUND	Cmax (ng/mL)
CO[C@@H]1C[C@@H](C[C@H]2CC[C@H](C)[C@H]([C@@H](C)C(=O)O)O2)O[C@]2(O[C@](C)([C@H]3CC[C@@](C)([C@@H]4O[C@@H]([C@H]5O[C@@](O)(CO)[C@H](C)C[C@@H]5C)C[C@@H]4C)O3)C[C@H]2C)[C@@H]1C [nigericin]	840

Cited source: patent US12018305B2
